pKi: −log10 of the molar value.
Here we list compounds with their recorded pKi when tested on Alpha-1B adrenergic receptor (Homo sapiens).
Sequence (P35368 whole entry): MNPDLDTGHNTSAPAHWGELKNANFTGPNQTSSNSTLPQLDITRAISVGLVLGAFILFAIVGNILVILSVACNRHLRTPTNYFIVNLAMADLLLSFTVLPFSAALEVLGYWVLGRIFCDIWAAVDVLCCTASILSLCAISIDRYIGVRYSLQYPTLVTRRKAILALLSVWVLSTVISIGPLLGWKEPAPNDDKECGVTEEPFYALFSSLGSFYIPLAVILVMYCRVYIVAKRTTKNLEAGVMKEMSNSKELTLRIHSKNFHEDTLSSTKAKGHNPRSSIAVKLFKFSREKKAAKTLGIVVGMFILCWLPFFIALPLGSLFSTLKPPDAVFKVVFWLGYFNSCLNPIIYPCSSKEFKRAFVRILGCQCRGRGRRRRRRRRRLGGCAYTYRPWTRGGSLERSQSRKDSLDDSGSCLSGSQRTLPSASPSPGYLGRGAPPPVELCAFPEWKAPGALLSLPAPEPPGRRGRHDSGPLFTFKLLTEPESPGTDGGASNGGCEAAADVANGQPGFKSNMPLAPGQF
quantityMeasured: pKi

1. CCOc1ccccc1OCCN[C@H](C)Cc1ccc(OC)c(S(N)(=O)=O)c1 : 9.22
2. COc1cccc2c1C1CN(CCCCn3c(=O)[nH]c4c(sc5ncc(-c6ccccc6)nc54)c3=O)CC1CO2 (configuration not stated) [CAS_172307] : 7.60
